Quick list: growth at 0.1 µM per entry.
# Test system: MCF7
# run-description: Growth inhibition of human MCF7 cells assessed as cell growth at 10^-7 M incubated for 48 hrs by sulforhodamine B assay
# Format: functional
# conditions-used: MCF7, 48 h, read-out: Activity

{"columns": ["molecule-smiles", "unit-descriptor", "growth at 0.1 µM"],
 "data": [
  ["c1ccc(-c2nc(Nc3ccc(-c4nc5ccccc5[nH]4)cc3)nc(N3CCOCC3)n2)cc1", "%", 92],
  ["c1ccc2[nH]c(-c3ccc(Nc4nc(N5CCCCC5)nc(N5CCOCC5)n4)cc3)nc2c1", "%", 91],
  ["Fc1ccc(-c2nc(Nc3ccc(-c4nc5ccccc5[nH]4)cc3)nc(N3CCOCC3)n2)cc1", "%", 89],
  ["Clc1ccc(-c2nc(Nc3ccc(-c4nc5ccccc5[nH]4)cc3)nc(N3CCOCC3)n2)cc1", "%", 86]
]}
